Experiment: protein stability index of a GFP-peptide fusion (GPS, HEK-293T) (PSI 1-6); higher = more stable;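 note: 24-mer peptide tiles fused after GFP, lentivirally expressed, FACS-sorted into six equal bins by GFP/DsRed ratio, decoded by Illumina sequencing, PSI is the read-weighted mean bin number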
Settings: treatment: MLN4924 1 uM, 8 h; c terminus: a fixed tail appended
Exercise: for every item that follows, state its recorded protein stability index.
One number for each entry.

Worked set:
INSERT INTO assay_data (seq_text, recorded_measurement) VALUES
  ('HRRIHTGEKPYECQDCGRAFNQNS [ZNF8]', 4.1),
  ('QVITQTGVPGQPLNFKAEPESETS [PTPRD]', 5.31),
  ('QEIATYRRLLEGEDAHLTQYKKEP [KRT17]', 4.82);

Consider the record given below.
Lookup: What measured protein stability index goes with IMDRFDCQYLMATFVNVYIASFIR [CDS2] ?
Found: 3.33

====

I'd be grateful if you could share measured protein stability index for these entries.
Assay: protein stability index of a GFP-peptide fusion (GPS, HEK-293T) (PSI 1-6); higher = more stable
Settings: treatment: DMSO; c terminus: a fixed tail appended
Answers are plain numbers.

Examples from the recorded data:
INSERT INTO assay_data (seq_text, parameter_measured, recorded_measurement) VALUES
  ('RLKKEEEDRIVTQNRVFAYLCKRV [CEP70]', 'protein stability index', 2.55),
  ('DKVIMKLGKTNAKAVSEMRQKIWN [DYNC2LI1]', 'protein stability index', 2.31),
  ('NMKNGANDVKHHRWFRSVDWEAVP [PRKX]', 'protein stability index', 2.95);

Lookup: May I ask what protein stability index has been recorded for EAVARHMLIFSLALEEPEKMGLQE [DNAAF3] ?
Found: 2.47

====

Test: protein stability index of a GFP-peptide fusion (GPS, HEK-293T) (PSI 1-6); higher = more stable
Conditions: treatment: DMSO; c terminus: a fixed tail appended
Kindly supply the reported protein stability index values for the records listed here.
Answers are plain numbers.

INSERT INTO assay_data (seq_text, parameter_measured, recorded_measurement) VALUES
  ('HQVTVNESLLAPLNVELDPEIQKV [KRT71]', 'protein stability index', 4.73),
  ('RDYAPPSRGYAYRDNGHSNRDEHS [RBMY1A1]', 'protein stability index', 4.59),
  ('EKYKPFSQVPTGEVFYYSCEYNFV [CFHR2]', 'protein stability index', 2.78),
  ('SSDSVGGFRYSERYDPEPKSKWDE [CLINT1]', 'protein stability index', 4.98),
  ('DLGHVTRISSPQVEEGDSRFLANE [WEE1]', 'protein stability index', 4.88);

Kindly give each listed record's protein stability index.
1. LLHVSSPNLASDSDLSRRSSSTMS [KCNA1]
2. CLRDDVVFFIYLYQRWIYRVDPTR [CLPTM1]
3. LQLNARSFMMGQGGEAAHHTRSPY [NEUROD6]
4. EEEEEEEGSGHSTGEDSAFQEPDS [WEE1]

Found:
4.26
2.77
2.99
5.7

Dear reader, for each entry below, please note its protein stability index.
1. ALSTMGTLICRKLGGVKKSATLRS [TPD52L3]
2. RMEGSQEVVNMAVIVPKEEGVISV [WDFY2]
3. LQAALQVLELHHSKLDTTKALNLL [VPS39]
4. LSQPVTYQAFRECTLETTVHASGW [BCL2L13]
5. NLRATDVRLMRQLLVINESIESIK [LURAP1L]
6. DDLTSVTNHGYRVQVENPERFSSA [TRIM35]

Found:
1: 2.6; 2: 3.23; 3: 2.23; 4: 2.44; 5: 2.41; 6: 4.44
